tested on: K24384-001-R-PDC complex spheroids, viability; assay: Anticancer human tumor K24384-001-R-PDC patient-derived pancreatic adenocarcinoma cell line growth inhibition [GQUAD]; conditions: second compound 1 µM; first compound 0.00999 µM; active compounds read low
attributeMeasured: viability, T/C (%)

compound	quantitativeResult
CC[C@@]1(O)C(=O)OCc2c1cc1n(c2=O)Cc2cc3c(CN(C)C)c(O)ccc3nc2-1 + Cc1cnc(CNC(=O)c2c(=O)c3ccc(N4CCCN(C)CC4)nc3n3c2sc2ccccc23)cn1	36.5
Cn1ncnc1[C@H]1c2n[nH]c(=O)c3cc(F)cc(c23)N[C@@H]1c1ccc(F)cc1 + Cc1cnc(CNC(=O)c2c(=O)c3ccc(N4CCCN(C)CC4)nc3n3c2sc2ccccc23)cn1	43.6
Cn1ncnc1[C@H]1c2n[nH]c(=O)c3cc(F)cc(c23)N[C@@H]1c1ccc(F)cc1 + CN(C)c1ccc(Nc2c3ccc(NC(=O)CCN4CCCC4)cc3nc3cc(NC(=O)CCN4CCCC4)ccc23)cc1	88

----------
List of viability, T/C values.
tested on: K24384-001-R-PDC complex spheroids, viability; experiment: Anticancer human tumor K24384-001-R-PDC cell line growth inhibition [GQUAD]; conditions: second compound 3.16 µM; first compound 0.0316 µM; active compounds read low;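 further: spheroids exposed to compounds for seven days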

compound	measureUnit	viability, T/C
Cc1cccc(N(C)C(=O)C2C(O)CCN2c2nc(C)cc(C(F)(F)F)c2C#N)c1 (stereo not given) + Cc1[nH]c2ccc(F)cc2c1-c1nc2c3cccnc3c3ncccc3c2[nH]1	%	83.1
CC(=O)O[C@H]1C(=O)[C@@]2(C)[C@H]([C@H](OC(=O)c3ccccc3)[C@]3(O)C[C@H](OC(=O)[C@H](O)[C@@H](NC(=O)c4ccccc4)c4ccccc4)C(C)=C1C3(C)C)[C@]1(OC(C)=O)CO[C@@H]1C[C@@H]2O + Cc1cnc(CNC(=O)c2c(=O)c3ccc(N4CCCN(C)CC4)nc3n3c2sc2ccccc23)cn1	%	31.9
COc1cccc2c1C(=O)c1c(O)c3c(c(O)c1C2=O)CC(O)(C(=O)CO)CC3OC1CC(N)C(O)C(C)O1 (stereo not given) + CN(C)c1ccc(Nc2c3ccc(NC(=O)CCN4CCCC4)cc3nc3cc(NC(=O)CCN4CCCC4)ccc23)cc1	%	83.2
Nc1ccn(C2OC(CO)C(O)C2(F)F)c(=O)n1 (stereo not given) + Cc1[nH]c2ccc(F)cc2c1-c1nc2c3cccnc3c3ncccc3c2[nH]1	%	69.4
CCc1c2c(nc3ccc(O)cc13)-c1cc3c(c(=O)n1C2)COC(=O)[C@]3(O)CC + Cc1[nH]c2ccc(F)cc2c1-c1nc2c3cccnc3c3ncccc3c2[nH]1	%	38.1

----------
Items are presented alongside their recorded viability, T/C.
tested on: K24384-001-R-PDC complex spheroids, viability; assay: Anticancer human tumor K24384-001-R-PDC cell line growth inhibition [GQUAD]; conditions: second compound 0.0316 µM; first compound 0.1 µM; active compounds read low;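 further: spheroids exposed to compounds for seven days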
attributeMeasured: viability, T/C (%)

compound	attributeMeasured	quantitativeResult
CC(C)(O)C1CCC(Nc2ccc3ncc(-c4cccc(C(F)(F)F)c4)n3n2)CC1 (stereo not drawn) + CN(C)c1ccc(Nc2c3ccc(NC(=O)CCN4CCCC4)cc3nc3cc(NC(=O)CCN4CCCC4)ccc23)cc1	viability, T/C	106
CC1COCCN1c1cc(C2(O)CC3CCC(C2)O3)c2cnn(-c3ccn[nH]3)c2n1 (stereo not drawn) + Cc1cnc(CNC(=O)c2c(=O)c3ccc(N4CCCN(C)CC4)nc3n3c2sc2ccccc23)cn1	viability, T/C	39.6
CC1COCCN1c1cc(-c2ccnn2C)c2ccnc(-c3ccn[nH]3)c2n1 (stereo not drawn) + CN(C)c1ccc(Nc2c3ccc(NC(=O)CCN4CCCC4)cc3nc3cc(NC(=O)CCN4CCCC4)ccc23)cc1	viability, T/C	41.9
